System: Pasteurella multocida
Assay: Minimum inhibitory concentration against Pasteurella multocida
Type: functional
measurement.name: MIC

1. CC[C@H]1OC(=O)[C@H](C)[C@@H](O[C@H]2C[C@@](C)(OC)[C@@](O)(c3cc4ccccc4n3C)[C@H](C)O2)[C@H](C)[C@@H](O[C@@H]2O[C@H](C)C[C@H](N(C)C)[C@H]2O)[C@](C)(O)C[C@@H](C)CN[C@H](C)[C@@H](O)[C@]1(C)O | 0.2 µg/mL
2. CC[C@H]1OC(=O)[C@H](C)[C@@H](O[C@H]2C[C@@](C)(OC)[C@@](O)(CCO)[C@H](C)O2)[C@H](C)[C@@H](O[C@@H]2O[C@H](C)C[C@H](N(C)C)[C@H]2O)[C@](C)(O)C[C@@H](C)CN[C@H](C)[C@@H](O)[C@]1(C)O | 0.39 µg/mL
3. C=C[C@@]1(O)[C@H](C)O[C@@H](O[C@H]2[C@H](C)[C@@H](O[C@@H]3O[C@H](C)C[C@H](N(C)C)[C@H]3O)[C@](C)(O)C[C@@H](C)CN[C@H](C)[C@@H](O)[C@](C)(O)[C@@H](CC)OC(=O)[C@@H]2C)C[C@@]1(C)OC | 0.2 µg/mL
4. CC[C@H]1OC(=O)[C@H](C)[C@@H](O[C@H]2C[C@@](C)(OC)[C@]3(CO3)[C@H](C)O2)[C@H](C)[C@@H](O[C@@H]2O[C@H](C)C[C@H](N(C)C)[C@H]2O)[C@](C)(O)C[C@@H](C)CN[C@H](C)[C@@H](O)[C@]1(C)O | 0.1 µg/mL
5. CC[C@H]1OC(=O)[C@H](C)[C@@H](O[C@H]2C[C@@](C)(OC)[C@@]3(CO3)[C@H](C)O2)[C@H](C)[C@@H](O[C@@H]2O[C@H](C)C[C@H](N(C)C)[C@H]2O)[C@](C)(O)C[C@@H](C)CN[C@H](C)[C@@H](O)[C@]1(C)O | < 0.1 µg/mL
6. CC[C@H]1OC(=O)[C@H](C)[C@@H](O[C@H]2C[C@@](C)(OC)[C@@](O)(c3cccs3)[C@H](C)O2)[C@H](C)[C@@H](O[C@@H]2O[C@H](C)C[C@H](N(C)C)[C@H]2O)[C@](C)(O)C[C@@H](C)CN[C@H](C)[C@@H](O)[C@]1(C)O | 0.78 µg/mL
7. CC[C@H]1OC(=O)[C@H](C)[C@@H](O[C@H]2C[C@@](C)(OC)[C@@](O)(CCCOC)[C@H](C)O2)[C@H](C)[C@@H](O[C@@H]2O[C@H](C)C[C@H](N(C)C)[C@H]2O)[C@](C)(O)C[C@@H](C)CN(C)[C@H](C)[C@@H](O)[C@]1(C)O | 0.1 µg/mL

###

System: Pasteurella multocida
Test: Minimum inhibitory concentration against Pasteurella multocida
Format: functional
// NB: equality with 0.2 µg/mL counts as Criterion not met; only MIC strictly below is Criterion met

1. CC[C@H]1OC(=O)[C@H](C)[C@@H](O[C@H]2C[C@@](C)(OC)[C@@](O)(c3cccnc3)[C@H](C)O2)[C@H](C)[C@@H](O[C@@H]2O[C@H](C)C[C@H](N(C)C)[C@H]2O)[C@](C)(O)C[C@@H](C)CN[C@H](C)[C@@H](O)[C@]1(C)O | Criterion not met
2. C#C[C@@]1(O)[C@H](C)O[C@@H](O[C@H]2[C@H](C)[C@@H](O[C@@H]3O[C@H](C)C[C@H](N(C)C)[C@H]3O)[C@](C)(O)C[C@@H](C)CN(C)[C@H](C)[C@@H](O)[C@](C)(O)[C@@H](CC)OC(=O)[C@@H]2C)C[C@@]1(C)OC | Criterion met
3. CC[C@H]1OC(=O)[C@H](C)[C@@H](O[C@H]2C[C@@](C)(OC)[C@](C)(O)[C@H](C)O2)[C@H](C)[C@@H](O[C@@H]2O[C@H](C)C[C@H](N(C)C)[C@H]2O)[C@](C)(O)C[C@@H](C)CN[C@H](C)[C@@H](O)[C@]1(C)O | Criterion met
4. CC[C@H]1OC(=O)[C@H](C)[C@@H](O[C@H]2C[C@@](C)(OC)[C@@](O)(c3nccn3C)[C@H](C)O2)[C@H](C)[C@@H](O[C@@H]2O[C@H](C)C[C@H](N(C)C)[C@H]2O)[C@](C)(O)C[C@@H](C)CN(C)[C@H](C)[C@@H](O)[C@]1(C)O | Criterion met
5. CC[C@H]1OC(=O)CC(O)[C@H](C)[C@@H](OC2O[C@H](C)[C@@H](O)[C@H](N(C)C)[C@H]2O)[C@@H](CCN2C[C@H](C)C[C@H](C)C2)CC(C)C(=O)/C=C/C(C)=C/[C@@H]1CO[C@@H]1O[C@H](C)[C@@H](O)[C@@H](OC)[C@H]1OC (stereo not given in full) | Criterion not met
6. CC[C@H]1OC(=O)[C@H](C)[C@@H](O[C@H]2C[C@@](C)(OC)[C@@](O)(CSC)[C@H](C)O2)[C@H](C)[C@@H](O[C@@H]2O[C@H](C)C[C@H](N(C)C)[C@H]2O)[C@](C)(O)C[C@@H](C)CN[C@H](C)[C@@H](O)[C@]1(C)O | Criterion met
7. CC[C@H]1OC(=O)[C@H](C)[C@@H](O[C@H]2C[C@@](C)(OC)[C@@](O)(c3ccccn3)[C@H](C)O2)[C@H](C)[C@@H](O[C@@H]2O[C@H](C)C[C@H](N(C)C)[C@H]2O)[C@](C)(O)C[C@@H](C)CN[C@H](C)[C@@H](O)[C@]1(C)O | Criterion not met
8. CC[C@H]1OC(=O)[C@H](C)[C@@H](O[C@H]2C[C@@](C)(OC)[C@@](O)(c3cc4ccccc4n3C)[C@H](C)O2)[C@H](C)[C@@H](O[C@@H]2O[C@H](C)C[C@H](N(C)C)[C@H]2O)[C@](C)(O)C[C@@H](C)CN(C)[C@H](C)[C@@H](O)[C@]1(C)O | Criterion not met
9. CCCC[C@@]1(O)[C@H](C)O[C@@H](O[C@H]2[C@H](C)[C@@H](O[C@@H]3O[C@H](C)C[C@H](N(C)C)[C@H]3O)[C@](C)(O)C[C@@H](C)CN[C@H](C)[C@@H](O)[C@](C)(O)[C@@H](CC)OC(=O)[C@@H]2C)C[C@@]1(C)OC | Criterion not met
10. CC[C@H]1OC(=O)[C@H](C)[C@@H](O[C@H]2C[C@@](C)(OC)[C@](C)(O)[C@H](C)O2)[C@H](C)[C@@H](O[C@@H]2O[C@H](C)C[C@H](N(C)C)[C@H]2O)[C@](C)(O)C[C@@H](C)CN(C)[C@H](C)[C@@H](O)[C@]1(C)O | Criterion met
11. C=CC[C@@]1(O)[C@H](C)O[C@@H](O[C@H]2[C@H](C)[C@@H](O[C@@H]3O[C@H](C)C[C@H](N(C)C)[C@H]3O)[C@](C)(O)C[C@@H](C)CN[C@H](C)[C@@H](O)[C@](C)(O)[C@@H](CC)OC(=O)[C@@H]2C)C[C@@]1(C)OC | Criterion met
